- SYSTEM: T1, recombinant human IGF-II (Insulin-like Growth Factor II) (human, UniProt P01344 25-91, biotinylated (Biotinyl-IGF-II, GroPep) where immobilised in SPR, site not stated; not biotinylated in ITC and as SPR analyte)
- T1 construct: also called IGF2; IGF-2
- T1 sequence (P01344 25-91 limits assumed): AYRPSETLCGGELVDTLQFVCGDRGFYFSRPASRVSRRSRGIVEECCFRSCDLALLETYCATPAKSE
- PROCEDURE TEXT: SPR, IGF-II immobilised, steady state
Label key: fulfilled means Kd under 40 nM; not fulfilled means Kd of 40 nM or more.

BINDER | CLASS ASSIGNMENT
IGF2R domain 11 with tryptophan at position 1544 (E1544W) (receptor) NEHDDCQVTNPSTGHLFDLSSLSGRAGFTAAYSWKGLVYMSICGENENCPPGVGACFGQTRISVGKANKRLRYVDQVLQLVYKDGSPCPSKSGLSYKSVISFVCRPEAGPTNRPMLISLDKQTCTLFFSWHTPLACEQATHHHHHH | not fulfilled
IGF2R domain 11 with glutamine at position 1544 (E1544Q) (receptor) NEHDDCQVTNPSTGHLFDLSSLSGRAGFTAAYSQKGLVYMSICGENENCPPGVGACFGQTRISVGKANKRLRYVDQVLQLVYKDGSPCPSKSGLSYKSVISFVCRPEAGPTNRPMLISLDKQTCTLFFSWHTPLACEQATHHHHHH | fulfilled
IGF2R domain 11 with leucine at position 1544 (E1544L) (receptor) NEHDDCQVTNPSTGHLFDLSSLSGRAGFTAAYSLKGLVYMSICGENENCPPGVGACFGQTRISVGKANKRLRYVDQVLQLVYKDGSPCPSKSGLSYKSVISFVCRPEAGPTNRPMLISLDKQTCTLFFSWHTPLACEQATHHHHHH | not fulfilled
IGF2R domain 11 E1544V (amino acids 1511-1650, C-terminal His6 tag, from Pichia pastoris) (receptor) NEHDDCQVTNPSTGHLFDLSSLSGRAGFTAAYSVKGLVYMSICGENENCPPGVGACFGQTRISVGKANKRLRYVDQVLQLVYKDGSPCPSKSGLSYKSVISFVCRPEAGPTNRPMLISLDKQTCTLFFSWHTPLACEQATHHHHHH | not fulfilled
IGF2R domain 11 with glycine at position 1544 (E1544G) (receptor) NEHDDCQVTNPSTGHLFDLSSLSGRAGFTAAYSGKGLVYMSICGENENCPPGVGACFGQTRISVGKANKRLRYVDQVLQLVYKDGSPCPSKSGLSYKSVISFVCRPEAGPTNRPMLISLDKQTCTLFFSWHTPLACEQATHHHHHH | not fulfilled
IGF2R domain 11 with serine at position 1544 (E1544S) (receptor) NEHDDCQVTNPSTGHLFDLSSLSGRAGFTAAYSSKGLVYMSICGENENCPPGVGACFGQTRISVGKANKRLRYVDQVLQLVYKDGSPCPSKSGLSYKSVISFVCRPEAGPTNRPMLISLDKQTCTLFFSWHTPLACEQATHHHHHH | fulfilled
wild type IGF2R domain 11 (amino acids 1511-1650) with C-terminal His6 tag, from Pichia pastoris (receptor, also called WT; wild type domain 11) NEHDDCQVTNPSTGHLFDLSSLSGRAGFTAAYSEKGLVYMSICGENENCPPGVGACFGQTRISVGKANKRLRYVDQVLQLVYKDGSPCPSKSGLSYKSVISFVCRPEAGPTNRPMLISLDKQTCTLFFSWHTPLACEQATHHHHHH | not fulfilled
IGF2R domain 11 with proline at position 1544 (E1544P) (receptor) NEHDDCQVTNPSTGHLFDLSSLSGRAGFTAAYSPKGLVYMSICGENENCPPGVGACFGQTRISVGKANKRLRYVDQVLQLVYKDGSPCPSKSGLSYKSVISFVCRPEAGPTNRPMLISLDKQTCTLFFSWHTPLACEQATHHHHHH | not fulfilled
IGF2R domain 11 with arginine at position 1544 (E1544R) (receptor) NEHDDCQVTNPSTGHLFDLSSLSGRAGFTAAYSRKGLVYMSICGENENCPPGVGACFGQTRISVGKANKRLRYVDQVLQLVYKDGSPCPSKSGLSYKSVISFVCRPEAGPTNRPMLISLDKQTCTLFFSWHTPLACEQATHHHHHH | fulfilled
IGF2R domain 11 with tyrosine at position 1544 (E1544Y) (receptor) NEHDDCQVTNPSTGHLFDLSSLSGRAGFTAAYSYKGLVYMSICGENENCPPGVGACFGQTRISVGKANKRLRYVDQVLQLVYKDGSPCPSKSGLSYKSVISFVCRPEAGPTNRPMLISLDKQTCTLFFSWHTPLACEQATHHHHHH | not fulfilled
IGF2R domain 11 E1544A (amino acids 1511-1650, C-terminal His6 tag, from Pichia pastoris) (receptor) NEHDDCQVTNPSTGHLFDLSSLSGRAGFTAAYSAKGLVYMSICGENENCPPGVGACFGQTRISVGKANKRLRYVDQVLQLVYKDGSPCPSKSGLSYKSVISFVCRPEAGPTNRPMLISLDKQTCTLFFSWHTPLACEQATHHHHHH | fulfilled
IGF2R domain 11 with methionine at position 1544 (E1544M) (receptor) NEHDDCQVTNPSTGHLFDLSSLSGRAGFTAAYSMKGLVYMSICGENENCPPGVGACFGQTRISVGKANKRLRYVDQVLQLVYKDGSPCPSKSGLSYKSVISFVCRPEAGPTNRPMLISLDKQTCTLFFSWHTPLACEQATHHHHHH | fulfilled
IGF2R domain 11 with aspartate at position 1544 (E1544D) (receptor) NEHDDCQVTNPSTGHLFDLSSLSGRAGFTAAYSDKGLVYMSICGENENCPPGVGACFGQTRISVGKANKRLRYVDQVLQLVYKDGSPCPSKSGLSYKSVISFVCRPEAGPTNRPMLISLDKQTCTLFFSWHTPLACEQATHHHHHH | not fulfilled

Source of measurements: patent US20090304651A1
